Origin of the recorded values: PubChem BioAssay AID1845199

Test system: 556581-035-R-J1 tumor spheroid viability, % test/control
EXPERIMENT NOTES: Anticancer human tumor 556581-035-R-J1 patient-derived ovarian carcinoma cell line growth inhibition
EXPERIMENTAL CONDITIONS: second compound 94.9 pM; first compound 3.16 µM; active compounds read low; spheroids with HUVEC and MSC
Exercise: state measured viability, T/C for each of the molecules provided.
Numbers only, in %.

For the molecule COc1ccc([C@@H](O)c2cc(-c3ncnc4cc(N5CCOCC5)ccc34)c(F)cc2Cl)nn1 + COc1cc2c(cc1O)CCNC21CSC2c3c(OC(C)=O)c(C)c4c(c3C(COC1=O)N1C(O)C3Cc5cc(C)c(OC)c(O)c5C(C21)N3C)OCO4 , what viability, T/C is on record?
42.7

Consider the record given below.
Would you mind telling me what viability, T/C value was observed for CC1COCCN1c1cc(-c2ccnn2C)c2ccnc(-c3ccn[nH]3)c2n1 (configuration not stated) + COc1cc2c(cc1O)CCNC21CSC2c3c(OC(C)=O)c(C)c4c(c3C(COC1=O)N1C(O)C3Cc5cc(C)c(OC)c(O)c5C(C21)N3C)OCO4 ?
38

----------
Tested on: 556581-035-R-J1 tumor spheroid viability, % test/control
EXPERIMENT NOTES: Anticancer human tumor 556581-035-R-J1 cell line growth inhibition;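 note: spheroids exposed to compounds for 7 days before viability read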
EXPERIMENTAL CONDITIONS: second compound 1 µM; first compound 3.16 µM; active compounds read low; spheroids with HUVEC and MSC
Method: Multicellular complex tumor spheroid response to DNA repair inhibitors in combination with DNA-damaging drugs This study explores the anticancer activities of DNA-damaging drugs and inhibitors of DNA damage repair, both as single agents and in combinations. […] Twenty-six patient-derived or established malignant cell lines were evaluated representing sarcoma, melanoma, small cell lung cancer (SCLC), non-small cell lung cancer (NSCLC), as well as bladder, ovarian and pancreatic cancers. […]
Provide the recorded viability, T/C for the entries that follow.
Numbers only, in %.

// below: answered compounds
Item: [2H]c1nc(C)nc([2H])c1-c1cc(NC[C@@H](C)c2cccc3c(C(=O)NC)ccnc23)ncn1 + Cn1nnc2c(C(N)=O)ncn2c1=O Test system: 556581-035-R-J1 tumor spheroid viability, % test/control Read-out: viability, T/C Value: ?
108

Next up: COc1cc(C)[nH]c(=O)c1CN1CCc2c(Cl)cc(C(OC)C3COC3)c(Cl)c2C1=O (stereo unspecified) + Cn1nnc2c(C(N)=O)ncn2c1=O
107

Next: CC1COCCN1c1cc(-c2ccnn2C)c2ccnc(-c3ccn[nH]3)c2n1 (stereo unspecified) + Cn1nnc2c(C(N)=O)ncn2c1=O
39.9

Quick one: give me viability, T/C for each item below, same order please.
1. CC(C)n1c(=O)n(C)c2cnc3cc(F)c(-c4ccc(OCCCN5CCCCC5)nc4)cc3c21 + Cn1nnc2c(C(N)=O)ncn2c1=O
2. Cc1cc(C)c(CNC(=O)c2cc(-c3ccc(CN4CCOCC4)cc3)cc3c2cnn3C2CCCC2)c(=O)[nH]1 + Cn1nnc2c(C(N)=O)ncn2c1=O
3. COc1ccc([C@@H](O)c2cc(-c3ncnc4cc(N5CCOCC5)ccc34)c(F)cc2Cl)nn1 + Cn1nnc2c(C(N)=O)ncn2c1=O

1: 98.5; 2: 110; 3: 47.7

----------
Tested on: 556581-035-R-J1 tumor spheroid viability, % test/control
EXPERIMENT NOTES: Anticancer human tumor 556581-035-R-J1 cell line growth inhibition;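 note: spheroids exposed to compounds for 7 days before viability read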
EXPERIMENTAL CONDITIONS: second compound 1 µM; first compound 0.1 µM; active compounds read low; spheroids with HUVEC and MSC
METRIC NAME: viability, T/C (%)
One number for each entry, in %.

Parameters: items (list). Returns: viability, T/C for each item.
1. CC(C)n1c(=O)n(C)c2cnc3cc(F)c(-c4ccc(OCCCN5CCCCC5)nc4)cc3c21 + Cn1nnc2c(C(N)=O)ncn2c1=O
2. COc1ccc([C@@H](O)c2cc(-c3ncnc4cc(N5CCOCC5)ccc34)c(F)cc2Cl)nn1 + Cn1nnc2c(C(N)=O)ncn2c1=O
3. CC1COCCN1c1cc(-c2ccnn2C)c2ccnc(-c3ccn[nH]3)c2n1 (stereo unspecified) + Cn1nnc2c(C(N)=O)ncn2c1=O

109
111
69.3
